From: patent US8889666B2

- subjectOfTest: EGFR (WT) (Homo sapiens)
- Sequence (P00533 669-1210 limits assumed): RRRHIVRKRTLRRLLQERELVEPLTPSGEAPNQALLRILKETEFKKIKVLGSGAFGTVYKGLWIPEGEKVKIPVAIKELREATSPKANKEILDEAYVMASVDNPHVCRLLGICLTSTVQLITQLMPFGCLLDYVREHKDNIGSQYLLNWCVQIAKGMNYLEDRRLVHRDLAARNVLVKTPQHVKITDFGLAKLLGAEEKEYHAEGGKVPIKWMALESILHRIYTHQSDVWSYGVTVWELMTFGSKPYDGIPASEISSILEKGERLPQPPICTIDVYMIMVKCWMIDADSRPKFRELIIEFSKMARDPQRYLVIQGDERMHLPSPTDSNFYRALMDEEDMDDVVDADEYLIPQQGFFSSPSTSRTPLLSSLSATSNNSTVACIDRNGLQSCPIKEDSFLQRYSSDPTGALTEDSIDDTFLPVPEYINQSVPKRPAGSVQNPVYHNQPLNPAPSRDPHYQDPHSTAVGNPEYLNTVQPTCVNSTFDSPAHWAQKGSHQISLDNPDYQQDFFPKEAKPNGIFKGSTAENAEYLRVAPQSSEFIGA
readoutLabel: IC50

[ask] Request the reported IC50 associated with `Nc1ncnc2c1c(-c1cnc3ccccc3c1)c1n2C[C@@H](NC(=O)/C=C\Cl)CC1`
[reply] 41 nM

[ask] What about Nc1ncnc2c1c(-c1cccc(NC(=O)c3ccccc3)c1)c1n2CCCC1 [Comp. Ex. 1, reference compound] ?
[reply] > 5000 nM

[ask] What about CN(C)C/C=C/C(=O)NC1CCc2c(-c3cnc4ccccc4c3)c3c(N)ncnc3n2C1 (centres unmarked) ?
[reply] 120 nM

[ask] What about `Nc1ncnc2c1c(-c1cnc3ccccc3c1)c1n2C[C@@H](NC(=O)/C=C/Cl)CC1` ?
[reply] 5.9 nM

[ask] What about C=CC(=O)N[C@@H]1CCc2c(-c3cnc4ccccc4c3)c3c(N)ncnc3n2C1 (single isomer, unassigned) ?
[reply] 170 nM
